tested on: ACHN; assay: NCI tumour cell line growth inhibition, 48 h
Calls of active or inactive are those of the source. No stated cut-off is given here; in the data, active = GI50 up to about 1.1 µM and inactive = higher.
Response enum: y for active, n for inactive

// known answers, use as guide
C[C@@H]1[C@@H]2[C@@H](C=C3C4CCC5Cc6nc7c(nc6C[C@@]5(C)C4C[C@H](O)[C@]32CO)CC2CCC3C4=C[C@H]5O[C@@]6(OC(C)(CO)C[C@@H]6O)[C@H](C)[C@@]5(O)[C@]4(C)[C@@H](O)CC3[C@]2(C)C7)O[C@]12CCC(C)(C)O2 (stereo partly drawn): y
O=C(O/N=C1/CCC/C1=C\c1ccccc1)c1ccc(Cl)c(Cl)c1: n

Consider the record given below.
Task item: What classification did `O=c1cc(NNc2ccc(F)cc2)[nH]c(=O)[nH]1` end up with in this test?
Reply: n
